System: soybean
run_description: Test C preemergence
Type: in vivo, Glycine max
test_settings: Preemergence, 500 g ai/ha; visual rating after 10 days, 0 to 100 scale (0 no effect, 100 complete control)
Hi there, I'd appreciate the recorded Plant response rating, Soybean for every entry that follows.
Quick one: just the number, no unit, thanks!

Plant response rating, Soybean reported for this molecule C[C@H]1CN(C(=O)c2cccc(-c3ncccn3)c2)c2cccc(Cl)c2O1 : 0

Notebook: C[C@H]1CN(C(=O)c2cc(-n3cncn3)cc3c2OCCO3)c2cccc(Cl)c2O1 , Plant response rating, Soybean read as 100

Entry C[C@H]1CN(C(=O)c2cc(-n3cnc(C4CCC4)n3)cc3c2OCCO3)c2cccc(Cl)c2O1 — recorded Plant response rating, Soybean = 60

Short answer for CC(C)c1ncn(-c2cc3c(c(C(=O)N4C[C@H](C)Oc5c(Cl)cccc54)c2)OCCCO3)n1 : Plant response rating, Soybean was 80

For CC(C)n1cnc(-c2cccc(C(=O)N3C[C@H](C)Oc4c(Cl)cccc43)c2)n1 the molecule record lists Plant response rating, Soybean as 0

Record Cc1ccc(-n2cnc(CS(C)(=O)=O)n2)cc1C(=O)N1C[C@H](C)Oc2c(Cl)cccc21 . Reported Plant response rating, Soybean: 90

What the record says about Cc1ccc(-n2cnc(C(C)(F)F)n2)cc1C(=O)N1C[C@H](C)Oc2c(Cl)cccc21 : Plant response rating, Soybean is 100

// COc1c(F)cc(-n2cnc(C(C)C)n2)cc1C(=O)N1C[C@H](C)Oc2c(Cl)cccc21 : Plant response rating, Soybean value = 90

====

Tested on: barnyardgrass
run_description: Test C postemergence
Assay type: in vivo, Echinochloa crusgalli
test_settings: 500 g ai/ha, postemergence, 10 days, 0 to 100 scale (0 no effect, 100 complete control)
measurement_kind: Plant response rating, Barnyardgrass
Reply briefly: the number, and no unit.

Plant response rating, Barnyardgrass for barnyardgrass with input CCOC[C@H]1CN(C(=O)c2cc(-n3cnc(C4CCC4)n3)cc3c2OCCO3)c2cccc(Cl)c2O1 [Compound 386] equals 30

The measured Plant response rating, Barnyardgrass that CC(C)c1cc(C(=O)N2C[C@H](C)Oc3c(Cl)cccc32)cc(-n2cncn2)c1 [Compound 316] showed for barnyardgrass is 50

Result for CCOC[C@H]1CN(C(=O)c2cc(-n3cnc(C(C)(C)C)n3)ccc2C)c2cccc(Cl)c2O1 [Compound 413] , tested on barnyardgrass, Plant response rating, Barnyardgrass: 40

The reported barnyardgrass Plant response rating, Barnyardgrass of Cc1cccc2c1OC(C(F)(F)F)CN2C(=O)c1cccc(-n2cnc(C(C)(C)C)n2)c1 (stereo not shown) [Compound 347] is 20

barnyardgrass data for CCOC[C@H]1CN(C(=O)c2cc(-n3cnc(C(C)(C)C)n3)cc3c2OCCO3)c2cccc(Cl)c2O1 [Compound 388] ; its Plant response rating, Barnyardgrass: 20

Given the molecule Cc1cccc2c1OC(C(F)(F)F)CN2C(=O)c1ccnc(-n2cnc(C(C)(C)C)n2)c1 (stereo not shown) [Compound 319] and test system barnyardgrass, the measured Plant response rating, Barnyardgrass is 60

The molecule COC[C@H]1CN(C(=O)c2cc(-n3cnc(C(C)C)n3)ccc2OC)c2cccc(Cl)c2O1 [Compound 314] , tested on barnyardgrass, showed Plant response rating, Barnyardgrass of 60

====

Please provide measured Plant response rating, Foxtail, Green for the entries that follow.
Tested on: green foxtail
run_description: Test C postemergence
Type: in vivo, Setaria viridis
test_settings: Postemergence, 500 g ai/ha, 10 days, visual 0 to 100 scale (0 no effect, 100 complete control)
Please reply with the value in numeric form only.

green foxtail data for Cc1cc(-n2cnc(C(C)C)n2)cc(C(=O)N2C[C@H](C)Oc3c(Cl)cccc32)c1F [Compound 223] ; its Plant response rating, Foxtail, Green: 60

Recorded Plant response rating, Foxtail, Green for COc1cc(C(=O)N2C[C@H](C)Oc3c(Cl)cccc32)cc(-n2cnc(C3CCC3)n2)c1 [Compound 214] on green foxtail was 80

Field Plant response rating, Foxtail, Green (green foxtail), entry CCn1cnc(-c2cccc(C(=O)N3C[C@H](C)Oc4c(Cl)cccc43)c2)n1 [Compound 173] : 40

The reported Plant response rating, Foxtail, Green value, green foxtail, for Cc1c(F)cc(-n2cnc(C(C)C)n2)cc1C(=O)N1C[C@H](C)Oc2c(Cl)cccc21 [Compound 151] reads 90

Fill in: green foxtail Plant response rating, Foxtail, Green for Cc1cc(-n2cnc(C(C)C)n2)cc(C(=O)N2C[C@H](C)Oc3c(Cl)cccc32)c1Cl [Compound 220] = 50

The reported green foxtail Plant response rating, Foxtail, Green of CC(C)c1ncn(-c2cc3c(c(C(=O)N4C[C@H](C)Oc5c(Cl)cccc54)c2)OCCO3)n1 [Compound 217] is 90

So the reported Plant response rating, Foxtail, Green for Cc1cccc2c1O[C@@H](C)CN2C(=O)c1cc(-n2cnc(C(C)C)n2)cc2occc12 [Compound 195] , on green foxtail, turned out to be 90

The reported green foxtail Plant response rating, Foxtail, Green of Cc1ccc(-n2cnc(C3(C)COC3)n2)cc1C(=O)N1C[C@H](C)Oc2c(Cl)cccc21 [Compound 275] is 90

Summary: COc1ccc(-n2cncn2)cc1C(=O)N1C[C@H](C)Oc2c(F)cccc21 [Compound 270] , green foxtail, Plant response rating, Foxtail, Green = 90

Value (Plant response rating, Foxtail, Green, green foxtail) for record CCn1cnc(-c2cccc(C(=O)N3C[C@H](C)Oc4c(C)cccc43)c2)n1 [Compound 165] = 0

Given the compound CC(C)c1ncn(-c2ccc(S(=O)(=O)C(F)(F)F)c(C(=O)N3C[C@H](C)Oc4c(Cl)cccc43)c2)n1 [Compound 229] and test system green foxtail, the measured Plant response rating, Foxtail, Green is 0

Lab entry: green foxtail assay, compound Cc1ccc(-n2cnc(C(C)C)n2)cc1C(=O)N1C[C@H](C)Oc2c1cccc2C(F)(F)F [Compound 170] , Plant response rating, Foxtail, Green = 90

The value of Plant response rating, Foxtail, Green recorded for Cc1ccc(-n2cnc(C(C)(F)F)n2)cc1C(=O)N1C[C@H](C)Oc2c(Cl)cccc21 [Compound 248] when tested on green foxtail reads 90

Sample C[C@H]1CN(C(=O)c2cc(-n3cncn3)cc3c2OCCO3)c2cccc(Cl)c2O1 [Compound 153] , system: green foxtail. Its Plant response rating, Foxtail, Green is 90

# lookup: CC(C)c1ncn(-c2cc(OC(F)F)c(OC(F)F)c(C(=O)N3C[C@H](C)Oc4c(Cl)cccc43)c2)n1 [Compound 150] on green foxtail, Plant response rating, Foxtail, Green = 0
